Biodistribution: Brain by entry:
tested on: NRG-mice bearing LNCaP tumors; assay: Biodistribution (and PET/SPECT imaging) in NRG-mice bearing LNCaP tumors; type: in vivo; conditions: 3 h p.i., Avg
*1 amine or outer side, *2 acyl side, *3 side chain or, on linkers, in order; H or OH if unused. Where a SMILES comes first, the peptide text is derived from it. [ ]: non-standard residue; d: D form. The star is where a group is joined. ξ: configuration not given here. ξLys(Nα-CO-ξAad) = O=C(O)CCCC(NC(=O)NC(CCCCN*)C(=O)O)C(=O)O; Butanoyl(4-(4-NO2Ph)) = O=C(CCCc1ccc([N+](=O)[O-])cc1)*; DOTA = O=C(O)CN1CCN(CC(=O)O)CCN(CC(=O)*)CCN(CC(=O)O)CC1; Butanoyl(4-(4-MeO-phenyl)) = COc1ccc(CCCC(=O)*)cc1; ξAla(9-anthryl) = NC(Cc1c2ccccc2cc2ccccc12)C(=O)O; X2 = O=C(NC(CCCCN*)C(=O)O)NC(CC(F)C(=O)O)C(=O)O; X1 = O=C(C1CCC(CN[*:1])CC1)[*:2]; ξK = NCCCCC(N)C(=O)O
Quick note: give the figure in % ID/g, leave out the unit.

Query: // lookup Biodistribution: Brain for O=C([O-])CN1CCN(CC(=O)[O-])CCN(CC(=O)NCCCCC(NC(=O)CNC(=O)CCCc2ccc([N+](=O)[O-])cc2)C(=O)NCC(=O)NCC2CCC(C(=O)NC(Cc3c4ccccc4cc4ccccc34)C(=O)NCCCCC(NC(=O)NC(CC(F)C(=O)O)C(=O)O)C(=O)O)CC2)CCN(CC(=O)[O-])CC1.[68Ga+3] (stereo not drawn) [^68Ga-CCZ02025] ({Butanoyl(4-(4-NO2Ph))}-G[ξK](DOTA)G[X1][ξAla(9-anthryl)]-X2)
Response: 0.22

---
Query: // lookup Biodistribution: Brain for COc1ccc(CCCC(=O)NCC(=O)NC(CCCCNC(=O)CN2CCN(CC(=O)[O-])CCN(CC(=O)[O-])CCN(CC(=O)[O-])CC2)C(=O)NCC(=O)NCC2CCC(C(=O)NC(Cc3c4ccccc4cc4ccccc34)C(=O)NCCCCC(NC(=O)NC(CCCC(=O)O)C(=O)O)C(=O)O)CC2)cc1.[68Ga+3] (stereo not drawn) [^68Ga-CCZ02009] ({Butanoyl(4-(4-MeO-phenyl))}-G[ξK](DOTA)G[X1][ξAla(9-anthryl)]-{ξLys(Nα-CO-ξAad)})
Response: 0.32

Query: Try the molecule O=C([O-])CN1CCN(CC(=O)[O-])CCN(CC(=O)NCCCCC(NC(=O)CNC(=O)CCCc2ccc([N+](=O)[O-])cc2)C(=O)NCC(=O)NCC2CCC(C(=O)NC(Cc3c4ccccc4cc4ccccc34)C(=O)NCCCCC(NC(=O)NC(CCCC(=O)O)C(=O)O)C(=O)O)CC2)CCN(CC(=O)[O-])CC1.[225Ac+3] (stereo not drawn) [^225Ac-CCZ02017] ({Butanoyl(4-(4-NO2Ph))}-G[ξK](DOTA)G[X1][ξAla(9-anthryl)]-{ξLys(Nα-CO-ξAad)})
Response: 0.19

====

Biodistribution: Blood by entry:
tested on: NRG-mice bearing LNCaP tumors; test: Biodistribution (and PET/SPECT imaging) in NRG-mice bearing LNCaP tumors; type: in vivo; conditions: 72 h p.i., Avg
*1 amine or outer side, *2 acyl side, *3 side chain or, on linkers, in order; H or OH if unused. Where a SMILES comes first, the peptide text is derived from it. [ ]: non-standard residue; d: D form. The star is where a group is joined. ξ: configuration not given here. ξLys(Nα-CO-ξAad) = O=C(O)CCCC(NC(=O)NC(CCCCN*)C(=O)O)C(=O)O; Butanoyl(4-(4-NO2Ph)) = O=C(CCCc1ccc([N+](=O)[O-])cc1)*; DOTA = O=C(O)CN1CCN(CC(=O)O)CCN(CC(=O)*)CCN(CC(=O)O)CC1; Butanoyl(4-(4-MeO-phenyl)) = COc1ccc(CCCC(=O)*)cc1; ξAla(9-anthryl) = NC(Cc1c2ccccc2cc2ccccc12)C(=O)O; X2 = O=C(NC(CCCCN*)C(=O)O)NC(CC(F)C(=O)O)C(=O)O; X1 = O=C(C1CCC(CN[*:1])CC1)[*:2]; ξK = NCCCCC(N)C(=O)O
Quick note: give the figure in % ID/g, leave out the unit.

# example entries with known answers
Query: // lookup Biodistribution: Blood for COc1ccc(CCCC(=O)NCC(=O)NC(CCCCNC(=O)CN2CCN(CC(=O)[O-])CCN(CC(=O)[O-])CCN(CC(=O)[O-])CC2)C(=O)NCC(=O)NCC2CCC(C(=O)NC(Cc3c4ccccc4cc4ccccc34)C(=O)NCCCCC(NC(=O)NC(CC(F)C(=O)O)C(=O)O)C(=O)O)CC2)cc1.[177Lu+3] (centres unmarked) [^177Lu-CCZ02008] ({Butanoyl(4-(4-MeO-phenyl))}-G[ξK](DOTA)G[X1][ξAla(9-anthryl)]-X2)
Response: 0.42

Query: Try the compound O=C([O-])CN1CCN(CC(=O)[O-])CCN(CC(=O)NCCCCC(NC(=O)CNC(=O)CCCc2ccc([N+](=O)[O-])cc2)C(=O)NCC(=O)NCC2CCC(C(=O)NC(Cc3c4ccccc4cc4ccccc34)C(=O)NCCCCC(NC(=O)NC(CCCC(=O)O)C(=O)O)C(=O)O)CC2)CCN(CC(=O)[O-])CC1.[225Ac+3] (centres unmarked) [^225Ac-CCZ02017] ({Butanoyl(4-(4-NO2Ph))}-G[ξK](DOTA)G[X1][ξAla(9-anthryl)]-{ξLys(Nα-CO-ξAad)})
Response: 0.01

Query: Try the compound O=C([O-])CN1CCN(CC(=O)[O-])CCN(CC(=O)NCCCCC(NC(=O)CNC(=O)CCCc2ccc([N+](=O)[O-])cc2)C(=O)NCC(=O)NCC2CCC(C(=O)NC(Cc3c4ccccc4cc4ccccc34)C(=O)NCCCCC(NC(=O)NC(CCCC(=O)O)C(=O)O)C(=O)O)CC2)CCN(CC(=O)[O-])CC1.[177Lu+3] (centres unmarked) [^177Lu-CCZ02017] ({Butanoyl(4-(4-NO2Ph))}-G[ξK](DOTA)G[X1][ξAla(9-anthryl)]-{ξLys(Nα-CO-ξAad)})
Response: 0.07

---
Query: // lookup Biodistribution: Blood for COc1ccc(CCCC(=O)NCC(=O)NC(CCCCNC(=O)CN2CCN(CC(=O)[O-])CCN(CC(=O)[O-])CCN(CC(=O)[O-])CC2)CC(=O)NCC2CCC(C(=O)NC(Cc3c4ccccc4cc4ccccc34)C(=O)NCCCCC(NC(=O)NC(CC(F)C(=O)O)C(=O)O)C(=O)O)CC2)cc1.[177Lu+3] (centres unmarked) [^177Lu-CCZ02019]
Response: 0.13

Query: Try the compound COc1ccc(CCCC(=O)NCC(=O)NC(CCCCNC(=O)CN2CCN(CC(=O)[O-])CCN(CC(=O)[O-])CCN(CC(=O)[O-])CC2)C(=O)NCC2CCC(C(=O)NC(Cc3c4ccccc4cc4ccccc34)C(=O)NCCCCC(NC(=O)NC(CCCC(=O)O)C(=O)O)C(=O)O)CC2)cc1.[177Lu+3] (centres unmarked) [^177Lu-HTK03170, reference compound]
Response: 0.07

====

System: NRG-mice bearing LNCaP tumors
Experiment: Biodistribution (and PET/SPECT imaging) in NRG-mice bearing LNCaP tumors
Format: in vivo
Details: 3 h p.i., Avg
Method: LNCaP cell line was obtained from ATCC (LNCaP clone FGC, CRL-1740). It was established from a metastatic site of left supraclavicular lymph node of human prostatic adenocarcinoma. […] The collected cells number was counted with a Hausser Scientific (Horsham, PA) Hemacytometer. […] PET imaging experiments were conducted using Siemens Inveon micro PET/CT scanner. […] Then, a 10-min static PET imaging or a one hour (30 min×2 frames) of static SPECT scan was performed to determined uptake in tumor and other organs. […]
*1 amine or outer side, *2 acyl side, *3 side chain or, on linkers, in order; H or OH if unused. Where a SMILES comes first, the peptide text is derived from it. [ ]: non-standard residue; d: D form. The star is where a group is joined. ξ: configuration not given here. ξLys(Nα-CO-ξAad) = O=C(O)CCCC(NC(=O)NC(CCCCN*)C(=O)O)C(=O)O; Butanoyl(4-(4-NO2Ph)) = O=C(CCCc1ccc([N+](=O)[O-])cc1)*; DOTA = O=C(O)CN1CCN(CC(=O)O)CCN(CC(=O)*)CCN(CC(=O)O)CC1; Butanoyl(4-(4-MeO-phenyl)) = COc1ccc(CCCC(=O)*)cc1; ξAla(9-anthryl) = NC(Cc1c2ccccc2cc2ccccc12)C(=O)O; X2 = O=C(NC(CCCCN*)C(=O)O)NC(CC(F)C(=O)O)C(=O)O; X1 = O=C(C1CCC(CN[*:1])CC1)[*:2]; ξK = NCCCCC(N)C(=O)O
Biodistribution: Spleen by entry:
Quick note: give the figure in % ID/g, leave out the unit.

# example entries with known answers
Query: // lookup Biodistribution: Spleen for O=C([O-])CN1CCN(CC(=O)[O-])CCN(CC(=O)NCCCCC(NC(=O)CNC(=O)CCCc2ccc([N+](=O)[O-])cc2)C(=O)NCC(=O)NCC2CCC(C(=O)NC(Cc3c4ccccc4cc4ccccc34)C(=O)NCCCCC(NC(=O)NC(CC(F)C(=O)O)C(=O)O)C(=O)O)CC2)CCN(CC(=O)[O-])CC1.[68Ga+3] (stereo not drawn) [^68Ga-CCZ02025] ({Butanoyl(4-(4-NO2Ph))}-G[ξK](DOTA)G[X1][ξAla(9-anthryl)]-X2)
Response: 1.17

Query: Try the compound O=C([O-])CN1CCN(CC(=O)[O-])CCN(CC(=O)NCCCCC(NC(=O)CNC(=O)CCCc2ccc([N+](=O)[O-])cc2)C(=O)NCC(=O)NCC2CCC(C(=O)NC(Cc3c4ccccc4cc4ccccc34)C(=O)NCCCCC(NC(=O)NC(CCCC(=O)O)C(=O)O)C(=O)O)CC2)CCN(CC(=O)[O-])CC1.[225Ac+3] (stereo not drawn) [^225Ac-CCZ02017] ({Butanoyl(4-(4-NO2Ph))}-G[ξK](DOTA)G[X1][ξAla(9-anthryl)]-{ξLys(Nα-CO-ξAad)})
Response: 1.15

Query: Try the compound O=C([O-])CN1CCN(CC(=O)[O-])CCN(CC(=O)NCCCCC(NC(=O)CNC(=O)CCCc2ccc([N+](=O)[O-])cc2)C(=O)NCC(=O)NCC2CCC(C(=O)NC(Cc3c4ccccc4cc4ccccc34)C(=O)NCCCCC(NC(=O)NC(CCCC(=O)O)C(=O)O)C(=O)O)CC2)CCN(CC(=O)[O-])CC1.[177Lu+3] (stereo not drawn) [^177Lu-CCZ02017] ({Butanoyl(4-(4-NO2Ph))}-G[ξK](DOTA)G[X1][ξAla(9-anthryl)]-{ξLys(Nα-CO-ξAad)})
Response: 2.25

Query: Try the compound COc1ccc(CCCC(=O)NCC(=O)NC(CCCCNC(=O)CN2CCN(CC(=O)[O-])CCN(CC(=O)[O-])CCN(CC(=O)[O-])CC2)CC(=O)NCC2CCC(C(=O)NC(Cc3c4ccccc4cc4ccccc34)C(=O)NCCCCC(NC(=O)NC(CC(F)C(=O)O)C(=O)O)C(=O)O)CC2)cc1.[177Lu+3] (stereo not drawn) [^177Lu-CCZ02019]
Response: 1.53

Query: Try the compound COc1ccc(CCCC(=O)NCC(=O)NC(CCCCNC(=O)CN2CCN(CC(=O)[O-])CCN(CC(=O)[O-])CCN(CC(=O)[O-])CC2)C(=O)NCC(=O)NCC2CCC(C(=O)NC(Cc3c4ccccc4cc4ccccc34)C(=O)NCCCCC(NC(=O)NC(CCCC(=O)O)C(=O)O)C(=O)O)CC2)cc1.[68Ga+3] (stereo not drawn) [^68Ga-CCZ02009] ({Butanoyl(4-(4-MeO-phenyl))}-G[ξK](DOTA)G[X1][ξAla(9-anthryl)]-{ξLys(Nα-CO-ξAad)})
Response: 2.17

Note: attention shifts to another entry.
Query: // lookup Biodistribution: Spleen for COc1ccc(CCCC(=O)NCC(=O)NC(CCCCNC(=O)CN2CCN(CC(=O)[O-])CCN(CC(=O)[O-])CCN(CC(=O)[O-])CC2)CC(=O)NCC2CCC(C(=O)NC(Cc3c4ccccc4cc4ccccc34)C(=O)NCCCCC(NC(=O)NC(CCCC(=O)O)C(=O)O)C(=O)O)CC2)cc1.[68Ga+3] (stereo not drawn) [^68Ga-CCZ02015]
Response: 1.01
